System: A549-ACE2
assayExplanation: drug-induced phospholipidosis relative to tamoxifen; higher = more phospholipidosis
conditionInfo: 10 µM; 48 h
Measured drug-induced phospholipidosis, listed per entry for reference.
# unit: % | format: bare number

Answered cases to consult:
molecule COc1cc2ncnc(Sc3nnc(C)s3)c2cc1OC , drug-induced phospholipidosis observed: 12.5

molecule OCCN1CCN(CCCN2c3ccccc3Sc3ccc(C(F)(F)F)cc32)CC1 , drug-induced phospholipidosis observed: 114

molecule CCCCCCCCCCC(O)C1C=CC2C(=O)N(c3ccccc3)C(=O)C2N1Nc1ccc([N+](=O)[O-])cc1 (centres undefined) , drug-induced phospholipidosis observed: 2.36

Proceeding to the next molecule to report its drug-induced phospholipidosis.
molecule O=C(NCc1ccccc1)c1csc(Nc2ccncn2)n1 , drug-induced phospholipidosis observed: -1.05

====

Tested on: HepG2
assayExplanation: cell viability relative to DMSO; higher = less toxic
conditionInfo: 72 h; 10 nM
For each record, check the reported cell viability: if it is below 90% write met, else write not met.

cell viability strictly < 90% for this compound? CC(C)c1ccccc1S(=O)(=O)c1cc(N)c2ncccc2c1[N+](=O)[O-]
not met

New cases:
cell viability strictly < 90% for this compound? C#C[C@]1(O)CC[C@H]2[C@@H]3CCC4=CC(=NO)CC[C@@H]4[C@H]3CC[C@@]21CC (mixture of isomers) [norelgestromin]
not met

cell viability strictly < 90% for this compound? O=c1ccc2ccc(OCCCCN3CCN(c4cccc5sccc45)CC3)cc2[nH]1 [brexpiprazole]
not met

cell viability strictly < 90% for this compound? Cc1c(C)c2c(c(C)c1O)CC[C@@](C)(CCC[C@H](C)CCC[C@H](C)CCCC(C)C)O2 [vitamin-E]
not met

cell viability strictly < 90% for this compound? COc1cc(C(=O)c2c(C)oc3c(O)c(OC)ccc23)cc(OC)c1OC [BNC105]
met

====

Measured cell viability, listed per entry for reference.
Test system: Calu-3
assayExplanation: cell viability relative to DMSO; higher = less toxic
conditionInfo: 72 h; 10000 nM

Answered cases to consult:
compound O=C(Nc1cc(Cl)cc(Cl)c1O)c1c(O)c(Cl)cc(Cl)c1Cl [oxyclozanide] , cell viability observed: 103%

compound O=C(NCc1ccccc1)c1csc(Nc2ccncn2)n1 [thiazovivin] , cell viability observed: 138%

compound C=CCN1CC[C@]23CCCC[C@H]2[C@H]1Cc1ccc(O)cc13 [levallorphan] , cell viability observed: 104%

New cases:
compound NC(=O)C1CCCc2c1[nH]c1ccc(Cl)cc21 (centres undefined) [EX-527] , cell viability observed: 94.7%

====

Tested on: U2OS
assayExplanation: cell viability relative to DMSO; higher = less toxic
conditionInfo: 72 h; 1 nM
Measured cell viability, listed per entry for reference.
# unit: % | format: bare number

compound CC(C)N(CCNC(=O)CN1CCCC1=O)C(C)C , cell viability observed: 98.8

Proceeding to the next compound to report its cell viability.
compound COc1cc2ncn(-c3cc(OCc4ccccc4C(F)(F)F)c(C(N)=O)s3)c2cc1OC , cell viability observed: 102

====

Test system: Vero E6
assayExplanation: drug sensitivity score (DSS) for viability; higher = more toxic; extreme values may be limits of the assay
conditionInfo: 72 h
Measured drug sensitivity score, listed per entry for reference.
Just the number, please.

Answered cases to consult:
compound C=CC(=O)Nc1cccc(C)c1Nc1ncc2cc(-c3c(Cl)c(OC)cc(OC)c3Cl)ccc2n1 , drug sensitivity score observed: 0.4

compound CC[C@H](C)[C@@H]([C@@H](CC(=O)N1CCC[C@H]1[C@H](OC)[C@@H](C)C(=O)N[C@@H](Cc1ccccc1)c1nccs1)OC)N(C)C(=O)[C@@H](NC(=O)[C@H](C(C)C)N(C)C)C(C)C , drug sensitivity score observed: 39

compound CC(C)c1ccc(NC(=O)Cn2cnc3c2c(=O)n(C)c(=O)n3C)cc1 , drug sensitivity score observed: 0

compound N=C(N)Nc1ccc2[nH]c3c(c2c1)C[C@@]1(O)[C@H]2Cc4ccc(O)c5c4[C@@]1(CCN2CC1CC1)[C@H]3O5 , drug sensitivity score observed: 0

compound C[C@@H](N)[C@H]1CC[C@H](C(=O)Nc2ccncc2)CC1 , drug sensitivity score observed: 0

New cases:
compound C=CCc1cccc(/C=N/NC(=O)CN2CCN(Cc3ccccc3)CC2)c1O , drug sensitivity score observed: 3.3

compound O=C(O)c1cnn(-c2nc3cc(OC(F)(F)F)c(Cl)cc3[nH]2)c1 , drug sensitivity score observed: 0

compound NS(=O)(=O)c1cc2c(cc1Cl)N=C(CSCc1ccccc1)NS2(=O)=O [benzthiazide] , drug sensitivity score observed: 0

compound CCN(CC)CCOC(=O)C(c1ccccc1)C1CCCCC1 (stereo not given) , drug sensitivity score observed: 0.1

compound COc1cc(/C=C/C(=O)N2CCN(CC(=O)N3CCCC3)CC2)cc(OC)c1OC [cinepazide] , drug sensitivity score observed: 0

compound OCCN1CCN(CCCN2c3ccccc3Sc3ccc(C(F)(F)F)cc32)CC1 , drug sensitivity score observed: 3.2
